Test System: unrelated Fc-fused recombinant protein (negative control)
Protocol: ELISA, bacterial lysate on plate-bound antigen, luminescence
// FALSE strictly below 300 RLU in ELISA Fc Control (RLU); TRUE otherwise

Given ISOP120FR5P1H6 (designed binder, not shown: small tags and cut ends, FN3 domain (Centyrin); tested as E. coli lysate) LPAPKNLVVSRVTEDSARLSWTAPDAAFDSFGIPYLEDIEVGEAIVLTVPGSERSYDLAGLKPGTEYHVGIYGVKGGEQSFPLSAIFTT , state whether its ELISA Fc Control (RLU) is at least 300 RLU.
TRUE

Given ISOP120FR5P1E10 (designed binder, not shown: small tags and cut ends, FN3 domain (Centyrin); tested as E. coli lysate) LPAPKNLVVSRVTEDSARLSWTAPDAAFDSFLIHYTEQPSKGEAIVLTVPGSERSYDLTGLKPGTEYQVPIGVKGGTQSCPLSAIFTT , state whether its ELISA Fc Control (RLU) is at least 300 RLU.
FALSE

Given ISOP120BR5P1G11 (designed binder, not shown: small tags and cut ends, FN3 domain (Centyrin); tested as E. coli lysate) LPAPKNLVVSRVTEDSARLSWTKRHFYTFDSFLIQYQESEKVGEAIVLTVPGSERSYYLTGLKPGTENTVSIYGVHGNHPYTDAPANPLSAIFTT , state whether its ELISA Fc Control (RLU) is at least 300 RLU.
TRUE

Given ISOP120HR5P1H7 (designed binder, not shown: small tags and cut ends, FN3 domain (Centyrin); tested as E. coli lysate) LPAPKNLVVSRVTEDSARLSWTAPDAAFDSFDIYYGEPGNLGEAIVLTVPGSERSYDLTGLKPGTEYLVTIYGVKGGDYSSPLSAIFTT , state whether its ELISA Fc Control (RLU) is at least 300 RLU.
TRUE

Given ISOP120AR5P1C5 (designed binder, not shown: small tags and cut ends, FN3 domain (Centyrin); tested as E. coli lysate) LPAPKNLVVSRVTEDSARLSWTLPNIHFDSFLIQYQESEKVGEAIVLTVPGSERSYDLTGLKPGTEYTVSIYGVGRHYTVYDSNPLSAIFTT , state whether its ELISA Fc Control (RLU) is at least 300 RLU.
TRUE

Given ISOP120ER5P1F4 (designed binder, not shown: small tags and cut ends, FN3 domain (Centyrin); tested as E. coli lysate) LPAPKNLVVSRVTEDSARLSWTAPDAAFDSFVIRYIEDTVMGEAIVLTVPGSERSYDLTGLKPGTEYHVSIEGVKGGPSSLPLSAIFTT , state whether its ELISA Fc Control (RLU) is at least 300 RLU.
TRUE

Given ISOP120HR5P1G6 (designed binder, not shown: small tags and cut ends, FN3 domain (Centyrin); tested as E. coli lysate) LPAPKNLVVSRVTEDSARLSWTAPDAAFDSFEIYYFELRLGGEAIVLTVPGSERSYDLTGLKPGTEYLVTIYGVKGGLDSQPLSAIFTT , state whether its ELISA Fc Control (RLU) is at least 300 RLU.
TRUE

Given ISOP120ER5P1E10 (designed binder, not shown: small tags and cut ends, FN3 domain (Centyrin); tested as E. coli lysate) LPAPKNLVVSRVTEDSARLSWTAPDAAFDSFEIYYMEDFHSGEAIVLTVPGSERSYDLTGLKPGTEYWVTIYGVEGGTGSLPLSAIFTT , state whether its ELISA Fc Control (RLU) is at least 300 RLU.
TRUE

Given ISOP120ER5P1E5 (designed binder, not shown: small tags and cut ends, FN3 domain (Centyrin); tested as E. coli lysate) LPAPKNLVVSRVTEDSARLSWTAPDAAFDSFRISYLEDVYYGEAIVLTVPGSERSYDLTGLKPGTEYHVGIHGVKGGIDSFPLSAIFTT , state whether its ELISA Fc Control (RLU) is at least 300 RLU.
FALSE

Given ISOP120ER5P1B4 (designed binder, not shown: small tags and cut ends, FN3 domain (Centyrin); tested as E. coli lysate) LPAPKNLVVSRVTEDSARLSWTAPDAAFDSFSILYGEPPALGEAIVLTVPGSERSYDLTGLKPGTEYWVTIYGVKGGVFSHPLSAIFTT , state whether its ELISA Fc Control (RLU) is at least 300 RLU.
TRUE

Given ISOP120FR5P1C2 (designed binder, not shown: small tags and cut ends, FN3 domain (Centyrin); tested as E. coli lysate) LPAPKNLVVSRVTEDSARLSWTAPDAAFDSFDINYFEQPKGGEAIVLTVPGSERSYDLTGLKPGTEYLVTIYGVKGGPYSPPLSAIFTT , state whether its ELISA Fc Control (RLU) is at least 300 RLU.
FALSE

Given ISOP120GR5P1B11 (designed binder, not shown: small tags and cut ends, FN3 domain (Centyrin); tested as E. coli lysate) LPAPKNLVVSRVTEDSARLSWTAPDAAFDSFNIKYWEANLYGEAIVLTVPGSERSYGLTGLKPGTEYRVHIRGVKGGINSFPLVAVFTT , state whether its ELISA Fc Control (RLU) is at least 300 RLU.
TRUE

Given ISOP120BR5P1A5 (designed binder, not shown: small tags and cut ends, FN3 domain (Centyrin); tested as E. coli lysate) LPAPKNLVVSRVTEDSARLSWAGHYRKIRNFDSFLIQYQESEKVGEAIVLTVPGSKRSYDLTGLKPGTEYTVSIYGVKFPYYYATADSNPLSAIFTT , state whether its ELISA Fc Control (RLU) is at least 300 RLU.
TRUE

Given ISOP120ER5P1A11 (designed binder, not shown: small tags and cut ends, FN3 domain (Centyrin); tested as E. coli lysate) LPAPKNLVVSRVTEDSARLSWTAPDAAFDSFEIYYKELRAEGEAIVLTVPGSERSYDLTGLKPGTEYLVTIYGVKGGSVSIPLSAIFTT , state whether its ELISA Fc Control (RLU) is at least 300 RLU.
TRUE

Entry source: patent US20220259289A1
